- target-entity: Histone deacetylase 11 (Homo sapiens, UniProt Q96DB2)
- Sequence (Q96DB2 whole entry): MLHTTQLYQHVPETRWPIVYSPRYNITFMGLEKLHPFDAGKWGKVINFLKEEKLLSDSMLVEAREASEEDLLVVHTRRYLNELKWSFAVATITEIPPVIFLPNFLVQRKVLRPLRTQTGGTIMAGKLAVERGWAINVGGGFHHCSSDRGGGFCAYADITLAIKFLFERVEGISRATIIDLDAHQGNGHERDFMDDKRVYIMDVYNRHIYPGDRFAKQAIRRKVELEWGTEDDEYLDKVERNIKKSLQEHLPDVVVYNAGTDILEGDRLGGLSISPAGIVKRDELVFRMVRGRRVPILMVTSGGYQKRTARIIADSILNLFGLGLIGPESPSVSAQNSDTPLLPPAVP
- assay-remarks: Inhibition of human recombinant full length FLAG-tagged HDAC11 transfected in HEK293T cells using Ac-ETDKrnyr-AMC as substrate incubated for 30 mins by fluorescence based analysis
pIC50: −log10 of the molar value.
metric-name: pIC50

> print(dat)
                              smiles.text  metric.name  recorded.result
1  CCCCCCCCCCCCCCCCNNC(=O)c1ccc(N(C)C)cc1        pIC50             6.04

====

Consider the following IC50 values measured on UniProt:P56524.
Sequence (P56524 whole entry): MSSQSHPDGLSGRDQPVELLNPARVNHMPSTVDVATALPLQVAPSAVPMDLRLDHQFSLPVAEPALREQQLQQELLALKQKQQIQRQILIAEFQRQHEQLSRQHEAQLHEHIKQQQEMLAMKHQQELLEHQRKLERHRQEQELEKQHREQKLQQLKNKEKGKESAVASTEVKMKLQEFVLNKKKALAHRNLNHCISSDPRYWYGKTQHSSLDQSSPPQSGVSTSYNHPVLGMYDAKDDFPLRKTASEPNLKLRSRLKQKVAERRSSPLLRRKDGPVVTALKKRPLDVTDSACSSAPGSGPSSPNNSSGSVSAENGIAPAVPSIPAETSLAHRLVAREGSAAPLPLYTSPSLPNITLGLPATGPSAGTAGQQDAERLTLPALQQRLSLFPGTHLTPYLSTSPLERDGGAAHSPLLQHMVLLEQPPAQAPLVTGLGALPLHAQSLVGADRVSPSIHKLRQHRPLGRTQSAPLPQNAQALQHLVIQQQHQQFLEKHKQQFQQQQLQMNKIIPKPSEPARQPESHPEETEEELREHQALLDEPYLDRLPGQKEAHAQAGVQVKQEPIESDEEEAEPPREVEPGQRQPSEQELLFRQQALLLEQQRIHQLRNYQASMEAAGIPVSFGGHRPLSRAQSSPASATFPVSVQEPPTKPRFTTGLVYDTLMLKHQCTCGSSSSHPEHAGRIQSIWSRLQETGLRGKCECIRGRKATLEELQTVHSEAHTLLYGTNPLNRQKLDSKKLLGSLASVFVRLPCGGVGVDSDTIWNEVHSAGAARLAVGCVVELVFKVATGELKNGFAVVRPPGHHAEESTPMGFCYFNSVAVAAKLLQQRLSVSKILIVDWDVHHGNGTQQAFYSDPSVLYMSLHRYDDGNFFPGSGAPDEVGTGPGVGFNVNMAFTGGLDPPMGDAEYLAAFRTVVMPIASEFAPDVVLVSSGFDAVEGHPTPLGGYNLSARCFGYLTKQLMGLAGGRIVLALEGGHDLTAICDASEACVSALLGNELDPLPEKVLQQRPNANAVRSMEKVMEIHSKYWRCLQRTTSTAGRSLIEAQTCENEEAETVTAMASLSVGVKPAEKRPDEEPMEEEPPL
metric-name: IC50 (µM)

> print(dat)
                                smiles.text  metric.name  value.prefix  recorded.result
1  CCCC(CCC)C(=O)N[C@@H](Cc1ccccc1)C(=O)NNc1ccccc1         IC50             =             3.18
2                           CCCC(CCC)C(=O)O         IC50             >              100

====

- target-entity: Histone deacetylase 2 (Homo sapiens)
- Sequence (Q92769 whole entry): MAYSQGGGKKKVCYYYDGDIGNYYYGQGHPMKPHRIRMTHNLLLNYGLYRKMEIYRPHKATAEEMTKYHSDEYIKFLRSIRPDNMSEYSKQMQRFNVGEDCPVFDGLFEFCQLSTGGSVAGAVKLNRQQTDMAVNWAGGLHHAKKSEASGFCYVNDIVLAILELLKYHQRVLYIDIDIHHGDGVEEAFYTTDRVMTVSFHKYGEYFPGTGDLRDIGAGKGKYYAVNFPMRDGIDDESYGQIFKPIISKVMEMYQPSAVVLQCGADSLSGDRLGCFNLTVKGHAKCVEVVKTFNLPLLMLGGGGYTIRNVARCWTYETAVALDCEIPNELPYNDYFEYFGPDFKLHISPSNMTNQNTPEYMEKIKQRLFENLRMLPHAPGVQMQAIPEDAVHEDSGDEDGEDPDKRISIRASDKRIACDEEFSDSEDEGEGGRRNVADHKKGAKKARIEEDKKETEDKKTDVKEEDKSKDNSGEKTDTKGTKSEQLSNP
- assay-remarks: Inhibition of HDAC2 (unknown origin)
metric-name: IC50

> print(dat)
                                smiles.text                         target.entity  recorded.result
1  CCCC(CCC)C(=O)N[C@@H](Cc1ccccc1)C(=O)NNc1ccccc1  Histone deacetylase 2 (Homo sapiens)          2020 nM

====

- target-entity: Histone deacetylase 3 (Homo sapiens, UniProt O15379)
- Sequence (O15379 whole entry): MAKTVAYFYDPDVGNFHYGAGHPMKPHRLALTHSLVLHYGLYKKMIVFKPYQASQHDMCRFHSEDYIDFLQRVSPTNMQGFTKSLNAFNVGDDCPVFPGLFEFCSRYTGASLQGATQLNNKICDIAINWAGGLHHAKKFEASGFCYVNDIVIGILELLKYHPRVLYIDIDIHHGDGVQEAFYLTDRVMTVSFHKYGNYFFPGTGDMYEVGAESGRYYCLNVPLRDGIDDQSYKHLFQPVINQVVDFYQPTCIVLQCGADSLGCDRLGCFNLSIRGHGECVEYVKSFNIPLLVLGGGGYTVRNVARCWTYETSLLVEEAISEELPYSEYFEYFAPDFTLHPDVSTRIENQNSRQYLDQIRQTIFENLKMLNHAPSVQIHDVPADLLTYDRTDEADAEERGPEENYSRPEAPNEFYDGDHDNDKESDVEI
- assay-remarks: Inhibition of HDAC3 (unknown origin)
pIC50: −log10 of the molar value.
metric-name: pIC50

> print(dat)
                                smiles.text                             target.entity  metric.name  recorded.result
1  CCCC(CCC)C(=O)N[C@@H](Cc1ccccc1)C(=O)NNc1ccccc1  Histone deacetylase 3 (Homo sapiens, UniProt O15379)        pIC50             5.83

====

- target-entity: Histone deacetylase 3 (Homo sapiens)
- assay-remarks: Inhibition of human HDAC3
pIC50: −log10 of the molar value.
metric-name: pIC50

> print(dat)
                      smiles.text  recorded.result
1  CCCNNC(=O)CCCCCCC(=O)Nc1ccccc1             6.42

====

- target-entity: Histone deacetylase 1 (Homo sapiens)
- Sequence (Q13547 whole entry): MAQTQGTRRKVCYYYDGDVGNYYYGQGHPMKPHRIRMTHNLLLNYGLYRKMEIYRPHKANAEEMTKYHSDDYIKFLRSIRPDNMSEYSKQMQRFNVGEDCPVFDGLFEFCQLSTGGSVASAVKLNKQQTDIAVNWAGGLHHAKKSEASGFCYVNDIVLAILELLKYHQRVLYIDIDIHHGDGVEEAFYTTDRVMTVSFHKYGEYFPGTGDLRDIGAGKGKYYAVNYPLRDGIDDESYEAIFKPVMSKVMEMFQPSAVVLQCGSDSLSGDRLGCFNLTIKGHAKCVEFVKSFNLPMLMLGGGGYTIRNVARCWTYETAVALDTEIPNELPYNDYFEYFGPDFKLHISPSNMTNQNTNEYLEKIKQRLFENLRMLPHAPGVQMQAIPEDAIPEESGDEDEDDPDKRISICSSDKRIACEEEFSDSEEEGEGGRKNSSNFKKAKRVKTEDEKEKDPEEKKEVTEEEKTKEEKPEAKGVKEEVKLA
- assay-remarks: Inhibition of human HDAC1
pIC50: −log10 of the molar value.
metric-name: pIC50

> print(dat)
                      smiles.text  metric.name  recorded.result
1  CCCNNC(=O)CCCCCCC(=O)Nc1ccccc1        pIC50             6.08
